system: Escherichia coli TOP10; experiment: shrunken log2 fold change of peptide-encoding DNA abundance (4.5 h post-induction vs induction); higher = less antimicrobial activity (less host growth inhibition); settings: time post-induction: 4.5 h; library: site-saturation at positions 5, 18, 19, 20;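 note: peptides expressed intracellularly from a pBAD plasmid library in pooled LB shake-flask culture, induced with 0.3% L-arabinose, DNA abundance read by NGS, three biological replicates, DESeq2 with apeglm shrinkage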
Exercise: for every item that follows, state its recorded shrunken log2 fold change.
Please reply with the number alone, leaving off any unit.

Using Escherichia coli TOP10 as the test system, report measured shrunken log2 fold change of `RRIRFRPPRLPRPRPRPGKAPRP` . 0.0429

Using Escherichia coli TOP10 as the test system, report measured shrunken log2 fold change of `RRIRPRPPRLPRPRPRPVIHPRP` . -0.435

Using Escherichia coli TOP10 as the test system, report measured shrunken log2 fold change of `RRIRFRPPRLPRPRPRPPAKPRP` . 0.633

Using Escherichia coli TOP10 as the test system, report measured shrunken log2 fold change of `RRIRMRPPRLPRPRPRPMSYPRP` . -0.175

Using Escherichia coli TOP10 as the test system, report measured shrunken log2 fold change of `RRIRFRPPRLPRPRPRPCFTPRP` . -0.237

Using Escherichia coli TOP10 as the test system, report measured shrunken log2 fold change of `RRIRRRPPRLPRPRPRPSYSPRP` . -0.319

Using Escherichia coli TOP10 as the test system, report measured shrunken log2 fold change of `RRIRVRPPRLPRPRPRPCNRPRP` . -0.0287

Using Escherichia coli TOP10 as the test system, report measured shrunken log2 fold change of `RRIRNRPPRLPRPRPRPIVHPRP` . -0.205

Using Escherichia coli TOP10 as the test system, report measured shrunken log2 fold change of `RRIRVRPPRLPRPRPRPQDTPRP` . -0.64

Using Escherichia coli TOP10 as the test system, report measured shrunken log2 fold change of `RRIRKRPPRLPRPRPRPLCCPRP` . 0.104

Using Escherichia coli TOP10 as the test system, report measured shrunken log2 fold change of `RRIRVRPPRLPRPRPRPFPQPRP` . -0.312

Using Escherichia coli TOP10 as the test system, report measured shrunken log2 fold change of `RRIRIRPPRLPRPRPRPRRQPRP` . 0.0868

Using Escherichia coli TOP10 as the test system, report measured shrunken log2 fold change of `RRIRDRPPRLPRPRPRPWTVPRP` . -0.168

Using Escherichia coli TOP10 as the test system, report measured shrunken log2 fold change of `RRIRERPPRLPRPRPRPIDSPRP` . -0.0823

Using Escherichia coli TOP10 as the test system, report measured shrunken log2 fold change of `RRIRQRPPRLPRPRPRPEWGPRP` . 0.125

Using Escherichia coli TOP10 as the test system, report measured shrunken log2 fold change of `RRIRMRPPRLPRPRPRPRKSPRP` . 0.902

Using Escherichia coli TOP10 as the test system, report measured shrunken log2 fold change of `RRIRTRPPRLPRPRPRPKNQPRP` . -0.274

Using Escherichia coli TOP10 as the test system, report measured shrunken log2 fold change of `RRIRPRPPRLPRPRPRPFEFPRP` . 0.0458

Using Escherichia coli TOP10 as the test system, report measured shrunken log2 fold change of `RRIRVRPPRLPRPRPRPCYWPRP` . -0.0621

Using Escherichia coli TOP10 as the test system, report measured shrunken log2 fold change of `RRIRYRPPRLPRPRPRPRKYPRP` . -0.333

Using Escherichia coli TOP10 as the test system, report measured shrunken log2 fold change of `RRIRTRPPRLPRPRPRPYCQPRP` . -0.804

Using Escherichia coli TOP10 as the test system, report measured shrunken log2 fold change of `RRIRSRPPRLPRPRPRPRMDPRP` . -0.291

Using Escherichia coli TOP10 as the test system, report measured shrunken log2 fold change of `RRIRARPPRLPRPRPRPRIVPRP` . 0.547

Using Escherichia coli TOP10 as the test system, report measured shrunken log2 fold change of `RRIRVRPPRLPRPRPRPREKPRP` . 0.179

Using Escherichia coli TOP10 as the test system, report measured shrunken log2 fold change of `RRIRARPPRLPRPRPRPWISPRP` . -0.333

Using Escherichia coli TOP10 as the test system, report measured shrunken log2 fold change of `RRIRLRPPRLPRPRPRPKCSPRP` . -0.035

Using Escherichia coli TOP10 as the test system, report measured shrunken log2 fold change of `RRIRYRPPRLPRPRPRPTSAPRP` . 0.0113

Using Escherichia coli TOP10 as the test system, report measured shrunken log2 fold change of `RRIRPRPPRLPRPRPRPCMWPRP` . 0.0459

Using Escherichia coli TOP10 as the test system, report measured shrunken log2 fold change of `RRIRPRPPRLPRPRPRPSNSPRP` . -0.794

Using Escherichia coli TOP10 as the test system, report measured shrunken log2 fold change of `RRIRTRPPRLPRPRPRPFEIPRP` . 0.0711

Using Escherichia coli TOP10 as the test system, report measured shrunken log2 fold change of `RRIRTRPPRLPRPRPRPCNLPRP` . -0.00247

Using Escherichia coli TOP10 as the test system, report measured shrunken log2 fold change of `RRIRARPPRLPRPRPRPMPPPRP` . 0.3

Using Escherichia coli TOP10 as the test system, report measured shrunken log2 fold change of `RRIRDRPPRLPRPRPRPKFTPRP` . -0.0602

Using Escherichia coli TOP10 as the test system, report measured shrunken log2 fold change of `RRIRSRPPRLPRPRPRPMWRPRP` . 0.1

Using Escherichia coli TOP10 as the test system, report measured shrunken log2 fold change of `RRIRKRPPRLPRPRPRPLFSPRP` . -0.0137

Using Escherichia coli TOP10 as the test system, report measured shrunken log2 fold change of `RRIRIRPPRLPRPRPRPEHSPRP` . 0.0398

Using Escherichia coli TOP10 as the test system, report measured shrunken log2 fold change of `RRIRARPPRLPRPRPRPIMLPRP` . -0.43

Using Escherichia coli TOP10 as the test system, report measured shrunken log2 fold change of `RRIRMRPPRLPRPRPRPGSNPRP` . 0.211

Using Escherichia coli TOP10 as the test system, report measured shrunken log2 fold change of `RRIRLRPPRLPRPRPRPTDRPRP` . -0.00223

Using Escherichia coli TOP10 as the test system, report measured shrunken log2 fold change of `RRIRRRPPRLPRPRPRPCCHPRP` . -0.345

Using Escherichia coli TOP10 as the test system, report measured shrunken log2 fold change of `RRIRWRPPRLPRPRPRPTIEPRP` . 0.145

Using Escherichia coli TOP10 as the test system, report measured shrunken log2 fold change of `RRIRTRPPRLPRPRPRPLAGPRP` . 0.0232

Using Escherichia coli TOP10 as the test system, report measured shrunken log2 fold change of `RRIRVRPPRLPRPRPRPNWCPRP` . -0.00931

Using Escherichia coli TOP10 as the test system, report measured shrunken log2 fold change of `RRIRGRPPRLPRPRPRPVPTPRP` . 0.865

Using Escherichia coli TOP10 as the test system, report measured shrunken log2 fold change of `RRIRPRPPRLPRPRPRPTPAPRP` . 0.618

Using Escherichia coli TOP10 as the test system, report measured shrunken log2 fold change of `RRIRTRPPRLPRPRPRPIINPRP` . -0.0706

Using Escherichia coli TOP10 as the test system, report measured shrunken log2 fold change of `RRIRWRPPRLPRPRPRPTGTPRP` . 0.288

Using Escherichia coli TOP10 as the test system, report measured shrunken log2 fold change of `RRIRQRPPRLPRPRPRPAFCPRP` . 0.585

Using Escherichia coli TOP10 as the test system, report measured shrunken log2 fold change of `RRIRPRPPRLPRPRPRPHQVPRP` . 0.341

Using Escherichia coli TOP10 as the test system, report measured shrunken log2 fold change of `RRIRLRPPRLPRPRPRPQTVPRP` . -0.211

Using Escherichia coli TOP10 as the test system, report measured shrunken log2 fold change of `RRIRVRPPRLPRPRPRPLDPPRP` . -0.258

Using Escherichia coli TOP10 as the test system, report measured shrunken log2 fold change of `RRIRNRPPRLPRPRPRPSARPRP` . 0.256

Using Escherichia coli TOP10 as the test system, report measured shrunken log2 fold change of `RRIRGRPPRLPRPRPRPWMDPRP` . 0.166

Using Escherichia coli TOP10 as the test system, report measured shrunken log2 fold change of `RRIRGRPPRLPRPRPRPAALPRP` . 0.912

Using Escherichia coli TOP10 as the test system, report measured shrunken log2 fold change of `RRIRPRPPRLPRPRPRPMLEPRP` . 0.0664

Using Escherichia coli TOP10 as the test system, report measured shrunken log2 fold change of `RRIRLRPPRLPRPRPRPLSNPRP` . -0.782

Using Escherichia coli TOP10 as the test system, report measured shrunken log2 fold change of `RRIRFRPPRLPRPRPRPKCEPRP` . 0.051

Using Escherichia coli TOP10 as the test system, report measured shrunken log2 fold change of `RRIRMRPPRLPRPRPRPWIPPRP` . -0.205

Using Escherichia coli TOP10 as the test system, report measured shrunken log2 fold change of `RRIRARPPRLPRPRPRPTLWPRP` . 1.05

Using Escherichia coli TOP10 as the test system, report measured shrunken log2 fold change of `RRIRERPPRLPRPRPRPSPKPRP` . 0.0298

Using Escherichia coli TOP10 as the test system, report measured shrunken log2 fold change of `RRIRGRPPRLPRPRPRPKNMPRP` . 0.176

Using Escherichia coli TOP10 as the test system, report measured shrunken log2 fold change of `RRIRHRPPRLPRPRPRPKNLPRP` . 0.133

Using Escherichia coli TOP10 as the test system, report measured shrunken log2 fold change of `RRIRGRPPRLPRPRPRPQVPPRP` . -0.0856

Origin of measurements: the supplement of paper PMC9112550
